molecular target: rat orexin 1 receptor (Rattus norvegicus (Rat), UniProt P56718); assay: Rat orexin 1 receptor radioligand binding (competitive binding, HEK293 membranes); details: Table 2, further testing; averages from 2-20 runs; read-out: rOX1 Ki
Sequence (P56718 whole entry): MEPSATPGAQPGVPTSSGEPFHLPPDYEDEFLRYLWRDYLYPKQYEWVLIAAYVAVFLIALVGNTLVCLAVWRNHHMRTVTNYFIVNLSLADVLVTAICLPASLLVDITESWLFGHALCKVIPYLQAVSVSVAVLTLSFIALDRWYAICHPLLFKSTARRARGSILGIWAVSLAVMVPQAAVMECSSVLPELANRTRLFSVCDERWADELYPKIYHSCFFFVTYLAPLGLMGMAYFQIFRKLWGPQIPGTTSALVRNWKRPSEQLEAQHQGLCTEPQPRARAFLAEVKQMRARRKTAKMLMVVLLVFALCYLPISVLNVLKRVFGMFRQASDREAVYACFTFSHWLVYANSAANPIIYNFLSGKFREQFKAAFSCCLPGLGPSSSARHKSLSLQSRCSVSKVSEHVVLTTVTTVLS
recorded.endpoint: Ki (nM)
Numbers only, in nM.

// known answers, use as guide
{"molecule": "O=C(c1ccccc1-c1ncc(F)cn1)N1[C@@H]2CC[C@H]1[C@H](Nc1ncc(C(F)(F)F)cc1F)C2 [Example 460]", "system.name": "rat orexin 1 receptor (Rattus norvegicus (Rat), UniProt P56718)", "recorded.endpoint": "Ki", "unit.symbol": "nM", "experimental.result": 57}
{"molecule": "O=C(c1ncccc1-c1ncccn1)N1[C@@H]2CC[C@H]1[C@H](Nc1ncc(C(F)(F)F)cc1F)C2 [Example 458]", "system.name": "rat orexin 1 receptor (Rattus norvegicus (Rat), UniProt P56718)", "recorded.endpoint": "Ki", "unit.symbol": "nM", "experimental.result": 46}
{"molecule": "O=C(c1cccc(F)c1-c1ncccn1)N1C2CCC1C(Oc1cnc(C(F)(F)F)cn1)C2 (racemic) [Example 447]", "system.name": "rat orexin 1 receptor (Rattus norvegicus (Rat), UniProt P56718)", "recorded.endpoint": "Ki", "unit.symbol": "nM", "experimental.result": 293}
{"molecule": "Cc1ccc(C(=O)N2C3CCC2C(Oc2cnc(C(F)(F)F)cn2)C3)c(-n2nccn2)n1 (racemic) [Example 446]", "system.name": "rat orexin 1 receptor (Rattus norvegicus (Rat), UniProt P56718)", "recorded.endpoint": "Ki", "unit.symbol": "nM", "experimental.result": 4700}
{"molecule": "Cc1ccc(C(=O)N2[C@@H]3CC[C@H]2[C@H](Nc2ncc(C(F)(F)F)cc2F)C3)c(-n2nccn2)n1 [Example 452]", "system.name": "rat orexin 1 receptor (Rattus norvegicus (Rat), UniProt P56718)", "recorded.endpoint": "Ki", "unit.symbol": "nM", "experimental.result": 176}
{"molecule": "O=C(c1ccccc1-c1ncccn1)N1[C@@H]2CC[C@H]1[C@H](Nc1ncc(C(F)(F)F)cc1F)C2 [Example 461]", "system.name": "rat orexin 1 receptor (Rattus norvegicus (Rat), UniProt P56718)", "recorded.endpoint": "Ki", "unit.symbol": "nM", "experimental.result": 30}
{"molecule": "Cc1cnc(C(=O)N2[C@@H]3CC[C@H]2[C@H](Nc2ncc(C(F)(F)F)cc2F)C3)c(-c2ncccn2)c1 [Example 457]", "system.name": "rat orexin 1 receptor (Rattus norvegicus (Rat), UniProt P56718)", "recorded.endpoint": "Ki", "unit.symbol": "nM", "experimental.result": 55}
{"molecule": "O=C(c1cccc(F)c1-c1ncco1)N1[C@@H]2CC[C@H]1[C@H](Nc1ncc(C(F)(F)F)cc1F)C2 [Example 454]", "system.name": "rat orexin 1 receptor (Rattus norvegicus (Rat), UniProt P56718)", "recorded.endpoint": "Ki", "unit.symbol": "nM", "experimental.result": 18}

Next, consider the following molecule.
Provide measured Ki value, entry: Cc1cnc(-n2nccn2)c(C(=O)N2[C@@H]3CC[C@H]2[C@H](Nc2ncc(C(F)(F)F)cc2F)C3)c1 [Example 453]
210

* * *

biological target: rat orexin 1 receptor (Rattus norvegicus (Rat), UniProt P56718); test: Rat orexin 1 receptor radioligand binding (competitive binding, HEK293 membranes); details: read-out: rOX1 Ki
recorded.endpoint: Ki

# map each compound to its Ki
1. O=C(c1cccc(F)c1-n1nccn1)N1[C@@H]2CC[C@H]1[C@H](Nc1cnc(Br)cn1)C2
2. O=C(c1cccc(F)c1-c1ccccn1)N1[C@@H]2CC[C@H]1[C@H](Nc1ccc(C(F)(F)F)cn1)C2
3. Cc1cnc(C(=O)N2[C@@H]3CC[C@H]2[C@H](Nc2ccc(C(F)(F)F)cn2)C3)c(-c2ncccn2)c1
4. O=C(c1cc(F)ccc1-c1ncco1)N1[C@@H]2CC[C@H]1[C@H](Nc1cnc(C(F)(F)F)cn1)C2

1: 17 nM; 2: 37 nM; 3: 28 nM; 4: 67 nM

* * *

biological target: human orexin 2 receptor (Homo sapiens (Human)); experiment: Human orexin 2 receptor radioligand binding ([3H]-EMPA competition, HEK293 membranes); conditions: human orexin 2 receptor; Table 2, averages of 2-20 runs; read-out: hOX2 Ki
Exercise: for every item that follows, state its recorded pKi.
Answers are plain numbers, as −log10 of the molar value.

Use these answered entries as a reference point.
{"compound": "O=C(c1cc(F)ccc1-c1ncccn1)N1C2CCC1C(COc1ccc(F)cn1)C2 (racemic) [Example 32]", "recorded.endpoint": "pKi", "experimental.result": 6.89}
{"compound": "O=C(c1cc(F)ccc1-n1nccn1)N1C2CCC1C(COc1ccc(F)cn1)C2 (racemic) [Example 30]", "recorded.endpoint": "pKi", "experimental.result": 6.80}

We now examine a further compound.
Provide pKi, tested on human orexin 2 receptor (Homo sapiens (Human)), for Cc1coc(-c2ccc(C)nc2C(=O)N2[C@@H]3CC[C@H]2[C@H](COc2ncc(F)cn2)C3)n1 [Example 179] .
5.27

* * *

molecular target: rat orexin 1 receptor (Rattus norvegicus (Rat), UniProt P56718); test: Rat orexin 1 receptor radioligand binding (competitive binding, HEK293 membranes); conditions: rat orexin 1 receptor; Table 2, averages from between 2-20 runs; read-out: rOX1 Ki
recorded.endpoint: pKi
Answers are plain numbers, as −log10 of the molar value.

Known results for compounds:
{"compound": "Cc1cccc(C(=O)N2C3CCC2C(Nc2cnc(Br)cn2)C3)c1-c1ncco1 (stereo not shown)", "recorded.endpoint": "pKi", "experimental.result": 8.22}
{"compound": "Cc1cnc(C(=O)N2[C@@H]3CC[C@H]2[C@H](Nc2ncc(C(F)(F)F)cc2F)C3)c(-n2nccn2)c1", "recorded.endpoint": "pKi", "experimental.result": 7.00}
{"compound": "Cc1cccc(C(=O)N2[C@@H]3CC[C@H]2[C@H](Nc2cnc(C(F)(F)F)cn2)C3)c1-c1ncco1", "recorded.endpoint": "pKi", "experimental.result": 8.22}

Now for a further compound.
Report its pKi with rat orexin 1 receptor (Rattus norvegicus (Rat), UniProt P56718) as the test system: O=C(c1cccc(F)c1-n1nccn1)N1[C@@H]2CC[C@H]1[C@H](Nc1ccc(C(F)F)cn1)C2
6.89

* * *

target: human orexin 2 receptor (Homo sapiens (Human), UniProt O43614); assay: Human orexin 2 receptor radioligand binding ([3H]-EMPA competition, HEK293 membranes); conditions: Table 2, further testing; averages from 2-20 runs; read-out: hOX2 Ki
Sequence (O43614 whole entry): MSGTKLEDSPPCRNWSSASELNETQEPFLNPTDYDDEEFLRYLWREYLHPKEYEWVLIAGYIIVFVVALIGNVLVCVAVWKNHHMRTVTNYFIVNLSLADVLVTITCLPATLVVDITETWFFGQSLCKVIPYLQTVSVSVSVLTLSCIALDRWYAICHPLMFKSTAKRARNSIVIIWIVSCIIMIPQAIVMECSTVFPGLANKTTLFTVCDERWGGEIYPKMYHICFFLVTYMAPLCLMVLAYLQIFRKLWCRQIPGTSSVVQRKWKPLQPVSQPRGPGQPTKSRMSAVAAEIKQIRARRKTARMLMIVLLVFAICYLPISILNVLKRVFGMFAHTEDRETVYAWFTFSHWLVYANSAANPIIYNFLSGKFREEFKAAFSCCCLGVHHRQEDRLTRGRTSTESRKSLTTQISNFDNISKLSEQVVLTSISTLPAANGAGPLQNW
recorded.endpoint: Ki

{"compound": "O=C(c1cccc(F)c1-n1nccn1)N1C2CCC1C(Oc1cnc(C(F)(F)F)cn1)C2 (racemic)", "recorded.endpoint": "Ki", "experimental.result": "> 10 µM"}
{"compound": "O=C(c1ncccc1-c1ncccn1)N1[C@@H]2CC[C@H]1[C@H](Nc1ncc(C(F)(F)F)cc1F)C2", "recorded.endpoint": "Ki", "experimental.result": "0.932 µM"}
{"compound": "Cc1cccc(C(=O)N2[C@@H]3CC[C@H]2[C@H](Nc2ncc(C(F)(F)F)cc2F)C3)c1-c1ncccn1", "recorded.endpoint": "Ki", "experimental.result": "0.339 µM"}
{"compound": "Cc1ccc(-c2ncccn2)c(C(=O)N2[C@@H]3CC[C@H]2[C@H](Nc2ncc(C(F)(F)F)cc2F)C3)n1", "recorded.endpoint": "Ki", "experimental.result": "0.454 µM"}
{"compound": "Cc1ccc(-n2nccn2)c(C(=O)N2[C@@H]3CC[C@H]2[C@H](Nc2ncc(C(F)(F)F)cc2F)C3)n1", "recorded.endpoint": "Ki", "experimental.result": "0.517 µM"}
{"compound": "Cc1cnc(C(=O)N2[C@@H]3CC[C@H]2[C@H](Nc2ncc(C(F)(F)F)cc2F)C3)c(-c2ncccn2)c1", "recorded.endpoint": "Ki", "experimental.result": "9.1 µM"}
{"compound": "O=C(c1ccccc1-c1ncccn1)N1[C@@H]2CC[C@H]1[C@H](Nc1ncc(C(F)(F)F)cc1F)C2", "recorded.endpoint": "Ki", "experimental.result": "0.76 µM"}
{"compound": "O=C(c1cccc(F)c1-c1ncccn1)N1C2CCC1C(Oc1cnc(C(F)(F)F)cn1)C2 (racemic)", "recorded.endpoint": "Ki", "experimental.result": "> 10 µM"}

Return reported Ki values for all items listed beneath this line.
1. O=C(c1ccccc1-n1nccn1)N1[C@@H]2CC[C@H]1[C@H](Nc1ncc(C(F)(F)F)cc1F)C2
2. Cc1ccc(C(=O)N2[C@@H]3CC[C@H]2[C@H](Nc2ncc(C(F)(F)F)cc2F)C3)c(-n2nccn2)n1
3. O=C(c1cccc(F)c1-n1nccn1)N1[C@@H]2CC[C@H]1[C@H](Nc1ncc(C(F)(F)F)cc1F)C2
4. O=C(c1c(F)cccc1-c1ncccn1)N1[C@@H]2CC[C@H]1[C@H](Nc1ncc(C(F)(F)F)cc1F)C2
5. O=C(c1ccccc1-c1ncc(F)cn1)N1[C@@H]2CC[C@H]1[C@H](Nc1ncc(C(F)(F)F)cc1F)C2

1: 0.666 µM; 2: 0.437 µM; 3: 0.873 µM; 4: 0.53 µM; 5: 1.3 µM

Name the recorded Ki of the compound listed here: O=C(c1cccc(F)c1-c1ncco1)N1[C@@H]2CC[C@H]1[C@H](Nc1ncc(C(F)(F)F)cc1F)C2
0.59 µM
